Numbers sourced from the supplement of paper PMC11451515.

Give AUC of viability dose-response curve for every item shown.
# Test system: P12-Ichikawa
# experiment-summary: AUC of viability dose-response curve (% viability x log10 dose units); higher = less sensitive
# cond: RPMI 5 mM glucose + 10% dialyzed FBS; 48 h

Solved cases below.
COc1c(Cl)cc2c([nH]c3cnccc32)c1NC(=O)c1cccnc1C: 454
NC(=O)c1cnccn1: 461
C[C@]1(O)CC(C1)C2=NC(=C3[N]2C=CN=C3N)C4=CC5=C(C=C4)C=CC(=N5)C6=CC=CC=C6 (stereo not drawn): 366
CNc1nc(-c2ccc3c(N)n[nH]c3c2)cc(N2C[C@@H](C(=O)NC3CCCCC3)CC[C@H]2C)n1: 336
CNC[C@H](O)[C@@H](O)[C@H](O)[C@H](O)CO: 474

# batch size: 8; output AUC of viability dose-response curve per entry
1. CCCOc1ccc(C(=O)OCCN(CC)CC)cc1N
2. OC(=O)\C1=C\N(C2CC2)C3=CC(=C(F)C=C3C1=O)N4CCNCC4
3. CCn1c(=O)c2c(nc(/C=C/c3ccc(OC)c(OC)c3)n2C)n(CC)c1=O
4. COC1=CC=C(C=C1)/C2=C(O)/C(=O)C3=C(O)C=C(O)C(=C3O2)CC=C(C)C
5. NC(=O)c1cccc(-c2cc(Nc3ccc(OC(F)(F)F)cc3)ncn2)c1
6. Oc1cc(-c2nc(-c3ccccc3)[nH]c2-c2ccncc2)ccc1Cl
7. CCCCCNC(=N)N/N=C/c1c[nH]c2ccc(OC)cc12
8. C[C@H](CCC(=O)O)[C@H]1CC[C@H]2[C@@H]3[C@H](O)C[C@@H]4C[C@H](O)CC[C@]4(C)[C@H]3CC[C@]12C

[446, 455, 464, 468, 460, 419, 436, 418]

Please look at the items below and tell me AUC of viability dose-response curve for each one, in order.
1. CCC(C)CCCCC(=O)N[C@@H](CCN)C(=O)NC(C(=O)N[C@H](CCN)C(=O)N[C@@H]1CCNC(=O)C([C@@H](C)O)NC(=O)[C@@H](CCN)NC(=O)[C@@H](CCN)NC(=O)[C@@H](CC(C)C)NC(=O)[C@H](Cc2ccccc2)NC(=O)[C@H](CCN)NC1=O)[C@@H](C)O (stereo partly drawn)
2. CC(C)(N)c1ccc(-c2nc3ccccc3nc2-c2ccccc2)cc1
3. C[C@H](NC(=O)Cc1cc(F)cc(F)c1)C(=O)N[C@H](C(=O)OC(C)(C)C)c1ccccc1
4. Cc1cc(Nc2cc(N3CCN(C)CC3)nc(/C=C/c3ccccc3)n2)n[nH]1
5. CCNC(=O)Nc1ccc(Oc2ncnc(N)c2/C=N/OC)cc1Cl

[445, 219, 390, 333, 471]

====

Provide the recorded cell viability for the entries that follow.
# Tested on: NOMO1
# experiment-summary: cell viability relative to DMSO control; higher = less cytotoxic
# cond: HPLM + 10% dialyzed FBS; 48 h; 0.000781 µM
Numbers only, in %.

CN(C)CCCC1(c2ccc(F)cc2)OCc2cc(C#N)ccc21 (stereo not given): 107
C[S+](=O)([O-])Oc1ccc2c(NC(N)=O)c(C(=O)c3ccc(Cl)cc3Cl)oc2c1: 115
C/C1=C2/[N]3[Co+]456([OH])<-[N]7=C1[C@@H](CCC(N)=O)C(C)(C)/C7=C/C1=[N]->4C(=C(/C)C4=[N]->5[C@@](C)([C@H]3[C@H](CC(N)=O)[C@@]2(C)CCC(=O)NC[C@@H](C)OP(=O)([O-])O[C@H]2[C@@H](O)[C@@H](n3c[n]->6c5cc(C)c(C)cc53)O[C@@H]2CO)[C@@](C)(CC(N)=O)[C@@H]4CCC(N)=O)/[C@@](C)(CC(N)=O)[C@@H]1CCC(N)=O: 94.9
CC1(C)SCCN([S+](=O)([O-])c2ccc(OCC#CCO)cc2)[C@H]1C(=O)NO: 121

--- query ---
Which cell viability value is on record for CC1(C)CC\C2=C(/O1)C3=C(C=CC=C3)C(=O)C2=O ?
123

====

# System: P12-Ichikawa
# experiment-summary: cell viability relative to DMSO control; higher = less cytotoxic
# cond: RPMI 5 mM glucose + 10% dialyzed FBS; 48 h; 0.0632 µM
Record form. Attribute: cell viability. Fill in for each entry.
Numbers only, in %.

Cc1ccc(C(=O)Nc2cccc(C(F)(F)F)c2)cc1Nc1nc(-c2cccnc2)nc2c1cnn2C: 95.5

Would you be so kind as to report cell viability for each listed record?
1. CCCOc1ccc(C(=O)OCCN(CC)CC)cc1N
2. CCn1nnc2c(N3CCOCC3)nc(-c3ccc(NC(=O)Nc4ccc(C(=O)N5CCN(C)CC5)cc4)cc3)nc21

1. 125
2. 69.9

====

# Tested on: P12-Ichikawa
# experiment-summary: cell viability relative to DMSO control; higher = less cytotoxic
# cond: HPLM + 10% dialyzed FBS; 48 h; 5.12 µM
Exercise: state measured cell viability for each of the molecules provided.
Answers are plain numbers, in %.

NCCCC(N)(C(=O)O)C(F)F (stereo not drawn): 108

# batch: return cell viability for each of the 2 molecules below
1. C[C@]12CC[C@H]3[C@@H](CC(=C)\C4=C\C(=O)\C=C/[C@]34C)[C@@H]1CCC2=O
2. O=C(O)c1ccc(O)c2ncc(N3CCOCC3)cc12

[98, 98.6]

Hey, can you go through the list below and give me cell viability for every item?
1. C[S+](=O)([O-])Oc1ccc2c(NC(N)=O)c(C(=O)c3ccc(Cl)cc3Cl)oc2c1
2. C[C@@H]1CC[C@@]2(CC[C@]3(C)\C(=C/C[C@@H]4[C@@]5(C)CC[C@H](O)C(C)(C)[C@@H]5CC[C@@]34C)[C@@H]2[C@H]1C)C(O)=O
3. N#C/C(=C(/N)Sc1ccc(N)cc1)c1ccccc1C(F)(F)F
4. CO[C@H]1CCC(O[C@H]2C[C@H]([C@]3(C)CC[C@]4(C[C@H](O)[C@@H](C)[C@@H]([C@@H](C)/C=C(\C)C(=O)[C@H](C)C[C@H](C)C(=O)[O-])O4)O3)O[C@]3(O[C@@H]([C@H]4O[C@@](O)(CO)[C@H](C)C[C@@H]4C)C[C@@H]3C)[C@@H]2C)O[C@@H]1C (stereo partly drawn)
5. Oc1cc(-c2nc(-c3ccccc3)[nH]c2-c2ccncc2)ccc1Cl

[108, 115, 94.4, 48.8, 92.7]

====

# Test system: SEM cells
# experiment-summary: AUC of viability dose-response curve (% viability x log10 dose units); higher = less sensitive
# cond: RPMI 5 mM glucose + 10% dialyzed FBS; 48 h
observable: AUC of viability dose-response curve
One number for each entry.

Solved cases below.
CCCN[C@H]1CCc2nc(N)sc2C1: 442
CO[C@@H](C(=O)N1Cc2[nH]nc(NC(=O)c3ccc(N4CCN(C)CC4)cc3)c2C1)c1ccccc1: 248
CN1CCc2c(c3ccccc3n2Cc2ccc(C(=O)NO)cc2)C1: 310
CC1(C)CC\C2=C(/O1)C3=C(C=CC=C3)C(=O)C2=O: 401
CCn1nnc2c(N3CCOCC3)nc(-c3ccc(NC(=O)Nc4ccc(C(=O)N5CCN(C)CC5)cc4)cc3)nc21: 337
O=C(O)c1ccc(O)c2ncc(N3CCOCC3)cc12: 393

Please give the measured AUC of viability dose-response curve for this compound: C[S+](=O)([O-])c1ccc([C@@H](O)[C@@H](CO)NC(=O)C(Cl)Cl)cc1
450

====

# Tested on: NOMO1
# experiment-summary: cell viability relative to DMSO control; higher = less cytotoxic
# cond: RPMI 5 mM glucose + 10% FBS; 48 h; 0.000781 µM
observable: cell viability (%)
One number for each entry, in %.

CCCN[C@H]1CCc2nc(N)sc2C1: 86.8
CN(CCOc1ccc(CC2SC(=O)NC2=O)cc1)c1ccccn1 (configuration not stated): 110
CCCCCCNC(=O)N1\C=C(F)/C(=O)NC1=O: 111
C/C1=C2/[N]3[Co+]456([OH])<-[N]7=C1[C@@H](CCC(N)=O)C(C)(C)/C7=C/C1=[N]->4C(=C(/C)C4=[N]->5[C@@](C)([C@H]3[C@H](CC(N)=O)[C@@]2(C)CCC(=O)NC[C@@H](C)OP(=O)([O-])O[C@H]2[C@@H](O)[C@@H](n3c[n]->6c5cc(C)c(C)cc53)O[C@@H]2CO)[C@@](C)(CC(N)=O)[C@@H]4CCC(N)=O)/[C@@](C)(CC(N)=O)[C@@H]1CCC(N)=O: 95.1
CC1(C)SCCN([S+](=O)([O-])c2ccc(OCC#CCO)cc2)[C@H]1C(=O)NO: 105
Cc1ccc2nc(NCCN)c3ncc(C)n3c2c1: 88.1

Now for a further molecule.
Tell me the measured cell viability of CN(C)CCCC1(c2ccc(F)cc2)OCc2cc(C#N)ccc21 (configuration not stated) , please.
88.5
